Below, each of the compounds is paired with its reported IC50 value.
tested on: L6; test: Cytotoxicity against rat L6 cells; assay type: cell-based
Measured parameter: IC50 (µM)

{"Smiles entry": "Oc1ccc(Br)c2c1C=NCC2", "Target": "L6", "Unit label": "µM", "Censoring qualifier": ">", "Measured": 100}
{"Smiles entry": "CC1=N[C@H](C)Cc2c(-c3cccc(Cl)c3)ccc(O)c21", "Target": "L6", "Unit label": "µM", "Censoring qualifier": "=", "Measured": 50.8}
{"Smiles entry": "CC1=N[C@H](C)Cc2c(-c3ccccc3)ccc(O)c21", "Target": "L6", "Unit label": "µM", "Censoring qualifier": "=", "Measured": 52.2}
{"Smiles entry": "COc1cccc2c(-c3ccc(O)c4c3CC(C)(C)N=C4)ccc(O)c12", "Target": "L6", "Unit label": "µM", "Censoring qualifier": ">", "Measured": 100}
{"Smiles entry": "CC1=N[C@H](C)Cc2c(-c3ccc(C(F)(F)F)cc3)ccc(O)c21", "Target": "L6", "Unit label": "µM", "Censoring qualifier": "=", "Measured": 96.8}

* * *

test system: Leishmania major; experiment: Antileishmanial activity against promastigotes of Leishmania major; type: functional, organism-based; settings: Leishmania major; read-out: IC50
pIC50: −log10 of the molar value.

{"Smiles entry": "COc1ccc(-c2ccc3ccccc3c2)c2c1C(C)=N[C@H](C)C2", "pIC50": 4.55}
{"Smiles entry": "COc1ccc(-c2ccccc2)c2c1C(C)=N[C@H](C)C2", "pIC50": "< 4.00"}
{"Smiles entry": "CC1=N[C@H](C)Cc2c(-c3ccccc3)ccc(O)c21", "pIC50": "< 4.00"}
{"Smiles entry": "CC1=N[C@H](C)Cc2c(-c3ccc(C(F)(F)F)cc3)ccc(O)c21", "pIC50": "< 4.00"}
{"Smiles entry": "CC1=N[C@H](C)Cc2c(-c3cccc4ccccc34)ccc(O)c21", "pIC50": 4.87}
{"Smiles entry": "COc1cccc2c(-c3ccc(O)c4c3CC(C)(C)N=C4)ccc(O)c12", "pIC50": "< 4.00"}

* * *

test system: Leishmania major; experiment: Antileishmanial activity against promastigotes of Leishmania major; type: functional, organism-based; conditions: Leishmania major; read-out: IC50
Lab note: cut-off is 40 µM. Strictly less in IC50 is 1. Exactly 40 µM or more is -1.

{"Smiles entry": "CC1=N[C@H](C)Cc2c(-c3cccc(Cl)c3)ccc(O)c21", "Qualitative label": -1}
{"Smiles entry": "CC1=N[C@H](C)Cc2c(-c3ccc(Cl)cc3)ccc(O)c21", "Qualitative label": -1}
{"Smiles entry": "COc1ccc(-c2ccc(C)cc2)c2c1C(C)=N[C@H](C)C2", "Qualitative label": -1}
{"Smiles entry": "C[C@@H]1[C@H](O)[C@@H](C)/C=C/C=C/C=C/C=C/C=C/C=C/C=C/[C@H](O[C@@H]2O[C@H](C)[C@@H](O)[C@H](N)[C@@H]2O)C[C@@H]2O[C@](O)(C[C@@H](O)C[C@@H](O)[C@H](O)CC[C@@H](O)C[C@@H](O)CC(=O)O[C@H]1C)C[C@H](O)[C@H]2C(=O)O", "Qualitative label": 1}
{"Smiles entry": "CC1=N[C@H](C)Cc2c(-c3ccc4ccccc4c3)ccc(O)c21", "Qualitative label": 1}
{"Smiles entry": "CC1=N[C@H](C)Cc2c(-c3ccc(C)cc3)ccc(O)c21", "Qualitative label": -1}
{"Smiles entry": "CC1(C)Cc2c(Br)ccc(O)c2C=N1", "Qualitative label": -1}
{"Smiles entry": "COc1ccc(-c2ccc(OC)c3ccccc23)c2c1C=NCC2", "Qualitative label": -1}
{"Smiles entry": "COc1ccc(-c2ccc(C(F)(F)F)cc2)c2c1C(C)=N[C@H](C)C2", "Qualitative label": -1}
{"Smiles entry": "COc1ccc(-c2ccc(OC)c3ccccc23)c2c1C=NC(C)(C)C2", "Qualitative label": 1}
